Assignment: determine reported pKd for the given binders.
Molecular target: T1, human B7-H7 recombinant protein (human, UniProt Q9UM44 23-344)
T1 construct: also called human B7-H7 protein
T1 sequence (looked up): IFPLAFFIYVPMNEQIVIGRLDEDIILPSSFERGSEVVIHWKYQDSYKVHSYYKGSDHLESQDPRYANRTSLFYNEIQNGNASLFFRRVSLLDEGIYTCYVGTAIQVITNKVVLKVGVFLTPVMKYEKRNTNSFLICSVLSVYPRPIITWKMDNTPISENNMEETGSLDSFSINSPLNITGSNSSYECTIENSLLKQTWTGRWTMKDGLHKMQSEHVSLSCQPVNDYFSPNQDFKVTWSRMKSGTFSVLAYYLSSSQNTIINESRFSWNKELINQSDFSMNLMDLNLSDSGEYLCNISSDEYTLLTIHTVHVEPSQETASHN
Test: BLI (Octet), antibody captured on AHC sensor, human B7-H7 in solution, 1:1 global fit
Protocol: The binding kinetics between antigen and antibody was analyzed using an Octet Red 96e (Fortebio) molecular interaction analyzer by biolayer interferometry (BLI) technology. For determining the affinity of antibodies for antigens, the rotary speed of the sensor was set at 1000 rpm. […]
Give bare numbers, as −log10 of the molar value.

Solved entries:
Binder: PR003263 (antibody, human IgG1, kappa, V domains shown, Human IgG1; also called 77E6C4) VH: QVQLVESGGGVVQPGRSLRLSCAASGFTFSYYGLNWVRQAPGKGLEWVAVIWFDGTNKYYADSVKGRFTISRDDSKNTLYLQMNSLRAEDTAVYYCARGYGSGSYYNYVMDAWGQGASVTVSS VL: EIVMTQSPATLSVSPGERATLSCRASQSVSSNLAWYQQKPGQAPRLLIYGASTGATGIPARFSGSGSGTDFTLTISSLQSEDFAVYYCQQYYKWPLTFGGGTKVEIKR
pKd: 8.26

Binder: PR003260 (antibody, human IgG1, kappa, V domains shown, Human IgG1; also called 70F3B1) VH: QVQLVESGGGVVQPGRSLRLPCAASGFTFSRYGMHWVRQAPGKGLEWVADIWYDGSKKYYADSVKGRFTISRDNSKNTLYLQMNSLRAEDTAVYFCTRDGGYSYGPFDYWGQGTLVTVSS VL: EIVMTQSPATLSVSPGERATLSCRASQSVSSNLAWYQQKPGQAPRLLIYYASTRAPGIPARFSGSESGTEFTLTISSLQSEDFAVYYCQQYNIWPYTFGQGTKLEIKR
pKd: 8.77

Binder: PR003265 (antibody, human IgG1, kappa, V domains shown, Human IgG1; also called 78G8B3) VH: QVQLVESGGGVVQPGRSLRLSCAASGFTFSTYGLHWVRQAPGKGLEWVAVIWYDESNEYYADSVKGRFTISRDNSKNTLYLQMNSLRAEDTALYYCARLAHDYGGTYFDYWGQGTLVTVSS VL: EIVMTQSPAILSVSPGERATLSCRASQSISYNLAWYQQKPGQAPRLLIYGASIRATGIPARFSGSGSGTDFTLTISSLQSEDFAVYYCQQYNNWPPWTFGQGTKVEIKR
pKd: 9.23

Binder: PR003252 (antibody, human IgG1, kappa, V domains shown, Human IgG1; also called 53C12D4) VH: QVQLVESGGGVVQPGRSLRLSCAASGFTFSNYAMHWVRQVPGKGLEWVALIWYDGSEKYYADSVKGRFTISRDDSKNTLFLQMSSLRAEDTAVYSCVREYSSGWGYFDYWGQGTQVTVSS VL: DIQMTQSPSTLSASVGDRVTITCRASQSISSWLAWYQQKPGKAPKLLIYKASSLKSGVPSRFSGSGSGTEFTLTISSLQPDDFATYYCLQYNSYYTFGQGTKLEIKR
pKd: 8.97

Exam item: Would you kindly share the measured pKd for PR003262 (antibody, human IgG1, kappa, V domains shown, Human IgG1; also called 77D5A4) VH: QVQLVESGGGVVQPGRSLRLSCAASGFTFSRYGIHWVRQAPGKGLEWVAVIWYNGRNKYYVDSVKGRFTISRDNSKNTLYLQMNSLRAEDTAVYYCARDGGYSYGPFDYWGQGTLVTVSS VL: EIVMTQSPATLSVSPGERATLSCRASQSFSNNLAWYQQKPGQAPRLLIYGASTRATGIPARFSGSGSGTEFTLTISSLQSEDFAVYYCHQYNIWPLTFGGGTKVEIKR ?
Marked response: 8.81
